Biological target: Sphingomyelin phosphodiesterase (Homo sapiens)
Sequence (P17405 whole entry): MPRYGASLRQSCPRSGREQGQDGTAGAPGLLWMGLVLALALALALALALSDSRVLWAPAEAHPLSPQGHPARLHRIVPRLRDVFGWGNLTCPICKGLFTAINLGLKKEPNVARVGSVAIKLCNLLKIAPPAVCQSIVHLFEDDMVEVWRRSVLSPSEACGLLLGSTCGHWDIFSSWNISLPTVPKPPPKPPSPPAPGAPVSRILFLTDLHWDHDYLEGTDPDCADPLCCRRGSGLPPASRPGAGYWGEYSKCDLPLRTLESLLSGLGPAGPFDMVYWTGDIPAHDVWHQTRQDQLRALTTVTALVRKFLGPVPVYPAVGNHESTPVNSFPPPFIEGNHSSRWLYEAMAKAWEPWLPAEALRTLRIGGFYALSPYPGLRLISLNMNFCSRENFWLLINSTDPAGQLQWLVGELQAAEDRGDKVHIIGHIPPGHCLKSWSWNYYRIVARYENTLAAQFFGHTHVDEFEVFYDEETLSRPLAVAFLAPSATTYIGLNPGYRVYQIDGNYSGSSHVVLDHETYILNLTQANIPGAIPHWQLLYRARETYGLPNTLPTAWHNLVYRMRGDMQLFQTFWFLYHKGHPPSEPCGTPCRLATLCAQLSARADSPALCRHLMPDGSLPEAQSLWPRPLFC
readout-label: IC50 (µM)
Give bare numbers, in µM.

Exam item: GET /values?readout=IC50&item= `COc1c(O)cc2oc3cc(O)cc(O)c3c(=O)c2c1CC=C(C)C`
Marked response: 15.3

----------
Molecular target: Sphingomyelin phosphodiesterase 2 (Homo sapiens)
Sequence (O60906 whole entry): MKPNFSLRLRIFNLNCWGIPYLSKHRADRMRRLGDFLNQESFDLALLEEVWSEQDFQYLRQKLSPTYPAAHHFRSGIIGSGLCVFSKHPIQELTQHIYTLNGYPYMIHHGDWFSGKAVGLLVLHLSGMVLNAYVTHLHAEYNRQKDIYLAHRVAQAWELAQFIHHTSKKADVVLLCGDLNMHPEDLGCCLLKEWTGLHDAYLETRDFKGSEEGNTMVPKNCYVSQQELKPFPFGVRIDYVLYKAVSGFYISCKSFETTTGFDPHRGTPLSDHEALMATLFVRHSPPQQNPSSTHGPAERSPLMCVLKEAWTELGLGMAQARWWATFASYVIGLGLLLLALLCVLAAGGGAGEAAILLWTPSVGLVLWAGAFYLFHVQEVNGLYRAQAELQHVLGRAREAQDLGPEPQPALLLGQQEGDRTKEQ
Could you please report measured pIC50 for the items listed next?
Numbers only, as −log10 of the molar value.

test-smiles | pIC50
COc1c(O)cc2oc3cc(O)cc(O)c3c(=O)c2c1CC=C(C)C | 4.59
COc1c(O)cc2oc3cc(O)c(CC=C(C)C)c(O)c3c(=O)c2c1CC=C(C)C | 3.95

Turning now to a further record.
Exam item: GET /values?readout=pIC50&item= `COc1cc(C(=O)c2c(O)cc(O)c(CC=C(C)C)c2O)c(O)cc1O`
Marked response: 3.70
